This listing pairs molecules with measured IC50.
target: UniProt P00746; assay: biochemical; assay type: biochemical; conditions: read-out: IC50
Expressed in nM, but write only the number.

NC(=O)n1cc(NC(=O)N2C[C@@H](N)C[C@H]2C(=O)NCc2cccc3ccccc23)c2ccccc21 :: 22400

Problem: Consider the molecule shown here: Cc1cc2c(C(N)=O)nn(CC(=O)N3[C@@H]4C[C@@H]4C[C@H]3C(=O)NCc3cccc(Cl)c3F)c2c(C)n1 What is its recorded IC50?
Solution: 15

Problem: Also need COC(=O)c1cccc2c(C(C)=O)cn(CC(=O)N3[C@@H]4C[C@@H]4C[C@H]3C(=O)NCc3cccc(Cl)c3F)c12 , thanks.
Solution: 91

Problem: Would you kindly repeat that for COc1cc(F)c(F)c(CNC(=O)[C@@H]2SCCN2C(=O)Nc2cn(C(N)=O)c3ccccc23)c1 ?
Solution: 80

* * *

target: Factor D (Homo sapiens (Human)); test: biochemical; assay type: biochemical; details: read-out: IC50
# maps each entry to its IC50
Report as a plain number; the unit nM is understood.

CC(=O)c1cn(CC(=O)N2C[C@H](F)C[C@H]2C(=O)NCc2cccc(Cl)c2F)c2ccc(OCc3ccccc3)cc12 :: 12
NC(=O)n1cc(NC(=O)N2[C@@H]3C[C@@H]3C[C@H]2C(=O)NCc2cccc(Cl)c2F)c2cc(OCC(=O)O)ccc21 :: 3
C[C@]1(O)C[C@@H](C(=O)NCc2cccc(Cl)c2F)N(C(=O)Nc2cn(C(N)=O)c3ccccc23)C1 :: 400

Problem: Identify the measured IC50 of NC(=O)n1cc(NC(=O)N2C[C@H](F)C[C@H]2C(=O)Nc2cc(Br)cc(C(=O)O)c2)c2ccccc21 for Factor D (Homo sapiens (Human)).
Solution: 55

* * *

target: Factor D (Homo sapiens (Human)); assay: biochemical; format: biochemical; conditions: read-out: IC50
Reported pIC50 values for the following compounds.
API: returns pIC50 as number; meaning -log10 of concentration in mol/L.

Use the examples below as a reference point.
COCCN[C@H]1C[C@@H](C(=O)NCc2cccc(Cl)c2F)N(C(=O)Cn2cc(C(C)=O)c3ccccc32)C1 [Example 609] :: 5.81
CCOC(=O)c1cc(Br)c(F)c(NC(=O)[C@@H]2C[C@@H](F)CN2C(=O)Nc2cn(C(N)=O)c3ccccc23)c1 [Example 333] :: 7.33
NC(=O)n1cc(NC(=O)N2C[C@@H](N)C[C@H]2C(=O)NC2CCCN(c3ccccn3)C2)c2ccccc21 (stereo partly shown) [Example 78] :: 4.98

Problem: I would be grateful if you could share the reported pIC50 for COC[C@@H](NC(=O)[C@@H]1C[C@H]2C[C@H]2N1C(=O)Cn1cc(C(C)=O)c2ccncc21)c1cccc(Cl)c1F [Example 535] .
Solution: 7.21

* * *

molecular target: Factor D (Homo sapiens (Human), UniProt P00746); experiment: biochemical; type: biochemical; conditions: read-out: IC50
Sequence (P00746 26-253): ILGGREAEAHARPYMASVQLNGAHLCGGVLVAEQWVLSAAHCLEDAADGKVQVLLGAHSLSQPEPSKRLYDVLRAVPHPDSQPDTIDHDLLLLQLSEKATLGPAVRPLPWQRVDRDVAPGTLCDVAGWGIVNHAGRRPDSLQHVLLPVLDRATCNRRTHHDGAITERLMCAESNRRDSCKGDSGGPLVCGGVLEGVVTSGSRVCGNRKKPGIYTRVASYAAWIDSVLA
Measured property: IC50 (nM)
Reply with just the number (in nM).

Answered examples (3):
CC(=O)c1cn(CC(=O)N2C[C@H](F)C[C@H]2C(=O)NCc2cc(-c3nnn[nH]3)cc(Cl)c2F)c2ccccc12 :: 37
NC(=O)n1cc(NC(=O)N2C[C@H](F)C[C@H]2C(=O)N[C@@H](c2cccc(Cl)c2)C(F)(F)F)c2ccccc21 :: 218
NC(=O)n1cc(NC(=O)N2[C@@H]3C[C@@H]3C[C@H]2C(=O)Nc2cncc(Br)c2)c2ccccc21 :: 200

Problem: Can you share its IC50? I mean this molecule: Cc1ccc(CNC(=O)[C@@H]2C[C@H](N)CN2C(=O)Nc2cn(C(N)=O)c3ccccc23)cc1
Solution: 7750
